Biological target: recombinant thioredoxin reductase 1 (TrxR1) (Homo sapiens)
Experiment: Inhibition of recombinant TrxR1 (DTNB assay)
Type: biochemical
Details: Biological Example 4; assays of Biological Example 1; read-out: TrxR Inhibition
Protocol: Small molecule inhibition of recombinant thioredoxin reductase 1 (TrxR1) and gluthathione reductase (GR) was examined in 96-well plate format. […] Percent activity was determined using DMSO vehicle and no TrxR1 (blank) controls. […] Percent activity was determined using DMSO vehicle and no GR (blank) controls.
Where a name gives a salt, the structure may show the parent alone.
readout-kind: pIC50
pIC50 is defined as minus the log10 of a concentration measured in mol/L.

Worked cases, answers included:
Consider the compound shown here: CS(=O)(=O)c1cccc(CN2[C@@H]3C(=O)C=C[C@H]2[C@@H]2C(=O)N(c4ccccc4)C(=O)[C@@H]23)c1 (relative stereo) What is its recorded pIC50?
5.65

Consider the compound shown here: O=C1C=C[C@H]2C3C(=O)N(c4ccccc4)C(=O)C3[C@@H]1N2Cc1cccc(F)c1F (mixture of isomers) What is its recorded pIC50?
5.73

Consider the compound shown here: O=C1C=CC2C3C(=O)N(c4ccccc4)C(=O)C3C1N2Cc1ccc(F)cc1 (stereo not drawn) [Example 8, Trifluoroacetate] What is its recorded pIC50?
5.69

Consider the compound shown here: O=C1C=C[C@H]2[C@@H]3C(=O)N(c4ccc(O)cc4)C(=O)[C@@H]3[C@@H]1N2Cc1ccccc1 (relative stereo) What is its recorded pIC50?
5.74

Consider the compound shown here: O=C1C=C[C@H]2[C@@H]3C(=O)N(c4ccccc4)C(=O)[C@@H]3[C@@H]1N2Cc1cc(F)ccc1F (relative stereo) What is its recorded pIC50?
5.87

As a next step, examine the compound that follows.
Consider the compound shown here: CCN1C(=O)C2C(C1=O)[C@@H]1C=CC(=O)[C@H]2N1Cc1cccc(C)c1 (mixture of isomers) What is its recorded pIC50?
5.44

====

pIC50 overview
Target: gluthathione reductase (GR) (Homo sapiens, UniProt P00390)
Sequence (P00390 44-522): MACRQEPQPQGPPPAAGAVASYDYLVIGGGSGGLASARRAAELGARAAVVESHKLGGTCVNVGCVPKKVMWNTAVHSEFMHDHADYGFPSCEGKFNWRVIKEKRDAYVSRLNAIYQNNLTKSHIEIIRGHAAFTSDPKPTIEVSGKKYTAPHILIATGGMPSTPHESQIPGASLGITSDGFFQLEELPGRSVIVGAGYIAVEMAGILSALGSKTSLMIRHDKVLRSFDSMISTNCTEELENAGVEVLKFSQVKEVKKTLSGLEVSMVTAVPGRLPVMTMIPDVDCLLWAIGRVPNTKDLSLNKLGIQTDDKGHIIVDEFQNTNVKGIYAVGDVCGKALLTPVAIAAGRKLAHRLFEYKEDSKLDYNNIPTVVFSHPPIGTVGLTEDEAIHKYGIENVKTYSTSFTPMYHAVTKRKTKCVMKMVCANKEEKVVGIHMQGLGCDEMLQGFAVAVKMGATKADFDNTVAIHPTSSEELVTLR
Test: Inhibition of recombinant GR (GSSG assay)
Type: biochemical
Settings: Biological Example 4; assays of Biological Example 1
pIC50: −log10 of the molar value. Counter-ions that a name gives are not always drawn.

Consider the compound shown here: O=C1C=C[C@H]2C3C(=O)N(c4ccccc4)C(=O)C3[C@@H]1N2Cc1cc(F)ccc1F (mixture of isomers) What is its recorded pIC50?
4.52

Consider the compound shown here: CC1=CC(=O)[C@@H]2[C@H]3C(=O)N(C4CCCCC4)C(=O)[C@H]3[C@H]1N2Cc1ccccc1 (relative stereo) What is its recorded pIC50?
< 4.00

Consider the compound shown here: CN1C(=O)C2C(C1=O)C1C(=O)C=CC2N1C (stereo not shown) What is its recorded pIC50?
< 4.00

Consider the compound shown here: O=C1C=CC2C3C(=O)N(c4ccccc4)C(=O)C3C1N2Cc1ccc(F)cc1 (stereo not shown) [Example 8, Trifluoroacetate] What is its recorded pIC50?
4.54

Consider the compound shown here: CS(=O)(=O)c1cccc(CN2[C@@H]3C(=O)C=C[C@H]2[C@@H]2C(=O)N(c4ccccc4)C(=O)[C@@H]23)c1 (relative stereo) What is its recorded pIC50?
< 4.00

As a next step, examine the compound that follows.
Consider the compound shown here: CC1=CC(=O)C2C3C(=O)N(Cc4ccccc4)C(=O)C3C1N2Cc1ccccc1 (stereo not shown) [Example 15, Trifluoroacetate] What is its recorded pIC50?
< 4.00

====

IC50 overview
biological target: gluthathione reductase (GR) (Homo sapiens); experiment: Inhibition of recombinant GR (GSSG assay); assay type: biochemical; details: Biological Example 4; assays of Biological Example 1
Counter-ions that a name gives are not always drawn.
Number in µM, nothing else.

Worked cases, answers included:
Query the reported IC50 for gluthathione reductase (GR) (Homo sapiens); item: O=C1C=CC2C3C(=O)N(c4ccccc4)C(=O)C3C1N2Cc1cccc(C(F)(F)F)c1 (stereo not shown) [Example 32]
35.8

Query the reported IC50 for gluthathione reductase (GR) (Homo sapiens); item: Cc1ccc(CN2[C@@H]3C(=O)C=C[C@H]2[C@@H]2C(=O)N(c4ccccc4)C(=O)[C@@H]23)cc1 (relative stereo) [Example 4]
55.6

Others:
Query the reported IC50 for gluthathione reductase (GR) (Homo sapiens); item: O=C1C=CC2C3C(=O)N(c4ccccc4)C(=O)C3C1N2Cc1cc(F)cc(F)c1 (stereo not shown) [Example 43, Trifluoroacetate]
91.7

====

target: recombinant thioredoxin reductase 1 (TrxR1) (Homo sapiens, UniProt Q16881); assay: Inhibition of recombinant TrxR1 (DTNB assay); type: biochemical; settings: Biological Example 4; assays of Biological Example 1; read-out: TrxR Inhibition
Sequence (Q16881 whole entry): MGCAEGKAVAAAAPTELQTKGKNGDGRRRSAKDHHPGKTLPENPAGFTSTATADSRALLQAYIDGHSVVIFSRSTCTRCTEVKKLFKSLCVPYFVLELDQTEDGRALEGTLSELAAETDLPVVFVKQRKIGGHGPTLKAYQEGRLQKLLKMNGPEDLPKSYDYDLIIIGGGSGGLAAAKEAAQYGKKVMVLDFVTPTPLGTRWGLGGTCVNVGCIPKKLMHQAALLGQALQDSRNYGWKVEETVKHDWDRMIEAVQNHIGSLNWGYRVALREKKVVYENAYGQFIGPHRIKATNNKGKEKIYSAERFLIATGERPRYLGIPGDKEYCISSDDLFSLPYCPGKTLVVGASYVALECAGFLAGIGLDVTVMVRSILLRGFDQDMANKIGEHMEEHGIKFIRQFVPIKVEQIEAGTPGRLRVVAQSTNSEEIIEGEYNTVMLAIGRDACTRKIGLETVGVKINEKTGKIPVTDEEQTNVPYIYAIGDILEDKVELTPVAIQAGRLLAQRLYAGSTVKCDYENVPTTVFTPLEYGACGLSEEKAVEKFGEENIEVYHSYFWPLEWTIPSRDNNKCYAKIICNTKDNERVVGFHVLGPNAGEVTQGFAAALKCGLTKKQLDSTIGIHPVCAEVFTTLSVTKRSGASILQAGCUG
readout-kind: pIC50
pIC50 is defined as minus the log10 of a concentration measured in mol/L.

Consider the compound shown here: Cc1ccc(F)c(CN2C3C=CC(=O)C2C2C(=O)N(c4ccccc4)C(=O)C23)c1F (stereo not shown) [Example 38] What is its recorded pIC50?
5.87

Consider the compound shown here: O=C1C=C[C@H]2[C@@H]3C(=O)N(C4CCCCC4)C(=O)[C@@H]3[C@@H]1N2Cc1ccccc1 (relative stereo) What is its recorded pIC50?
5.73

Consider the compound shown here: CN1[C@@H]2C(=O)C=C[C@H]1[C@@H]1C(=O)N(c3ccccc3)C(=O)[C@@H]12 (relative stereo) What is its recorded pIC50?
5.95

Consider the compound shown here: Cc1cccc(CN2[C@@H]3C(=O)C=C[C@H]2[C@@H]2C(=O)N(c4cccc(O)c4)C(=O)[C@@H]23)c1 (relative stereo) What is its recorded pIC50?
5.89

Consider the compound shown here: O=C1C=C[C@H]2C3C(=O)N(c4ccccc4)C(=O)C3[C@@H]1N2Cc1cccc(F)c1 (stereo partly shown) What is its recorded pIC50?
5.57

Consider the compound shown here: Cc1ccc(CN2[C@@H]3C(=O)C=C[C@H]2[C@@H]2C(=O)N(c4ccccc4)C(=O)[C@@H]23)cc1 (relative stereo) What is its recorded pIC50?
5.93

As a next step, examine the compound that follows.
Consider the compound shown here: O=C1C=CC2C3C(=O)N(c4ccccc4)C(=O)C3C1N2Cc1cccc(Cl)c1 (stereo not shown) [Example 41] What is its recorded pIC50?
5.63

====

target: recombinant thioredoxin reductase 1 (TrxR1) (Homo sapiens); assay: Inhibition of recombinant TrxR1 (DTNB assay); type: biochemical; settings: Biological Example 4; assays of Biological Example 1; read-out: TrxR Inhibition
Structures can show the parent of a compound that is named as a salt.
readout-kind: pIC50
pIC50 is defined as minus the log10 of a concentration measured in mol/L.

Consider the compound shown here: Cc1cccc(CN2[C@@H]3C(=O)C=C[C@H]2[C@@H]2C(=O)N(c4ccc(O)cc4)C(=O)[C@@H]23)c1 (relative stereo) What is its recorded pIC50?
5.79

Consider the compound shown here: COc1cccc(CN2[C@@H]3C(=O)C=C[C@H]2[C@@H]2C(=O)N(c4ccccc4)C(=O)[C@@H]23)c1 (relative stereo) What is its recorded pIC50?
5.91

Consider the compound shown here: O=C1C=CC2C3C(=O)N(c4ccccc4)C(=O)C3C1N2Cc1ccccc1Br (stereo not drawn) [Example 20, Trifluoroacetate] What is its recorded pIC50?
6.03

Consider the compound shown here: Cc1ccc(F)c(CN2C3C=CC(=O)C2C2C(=O)N(c4ccccc4)C(=O)C23)c1F (stereo not drawn) [Example 39] What is its recorded pIC50?
5.89

Consider the compound shown here: Cc1cccc(CN2[C@@H]3C(=O)C=C[C@H]2[C@@H]2C(=O)N(c4cccc(N5CCOCC5)c4)C(=O)[C@@H]23)c1 (relative stereo) What is its recorded pIC50?
5.58

Consider the compound shown here: CC(=O)Nc1ccc(N2C(=O)[C@@H]3[C@H](C2=O)[C@H]2C(=O)C=C[C@@H]3N2Cc2cccc(C)c2)cc1 (stereo in doubt) [Example 57, Trifluoroacetate] What is its recorded pIC50?
5.52
